Tested on: 786-0
TEST DETAILS: NCI tumour cell line growth inhibition, 48 h
Active and inactive are the calls of the source. Rule as the data show it: active = GI50 up to about 1.1 µM and inactive = higher.
Below, each of the molecules is paired with its reported GI50 value.

Query: Checklist item: GI50 tested on 786-0, entry O=C(NC(Cl)(C(F)(F)F)C(F)(F)F)c1ccc(F)cc1 , value?
Result: > 100 µM (inactive)

---

System: T47D
TEST DETAILS: NCI tumour cell line growth inhibition, 48 h
Calls of active or inactive are those of the source. Cut-off read from the data, not from the text of the source: active = GI50 up to about 1.1 µM and inactive = higher.
Below, each of the molecules is paired with its reported GI50 value.

Query: Can you share its GI50? I mean this molecule: CCSc1n/c(=C\c2ccc(N(C)C)cc2)c2nnnn12
Result: > 100 µM (inactive)

Query: Input CCCCSC1=N/C(=C\c2ccco2)C(Cl)=N1
Result: > 100 µM (inactive)

Query: Input CO/N=[N+](\[O-])NC(C)C
Result: > 100 µM (inactive)

Others:
Query: Can you share its GI50? I mean this molecule: CC1(C)C[C@H]2[C@H](O)C(CO)=C3C(=O)[C@@H](O)[C@]3(C)[C@H]2C1
Result: 74.6 µM (inactive)

Query: Input CCOC(=O)C1=NN(c2ccc(C)cc2)C2=CC(C)=NN(C)C(=S)N21
Result: 26.4 µM (inactive)

Query: Input Cc1ccc(NCc2nnc3c(-c4ccccc4)nc4ccccc4n23)cc1
Result: 3.36 µM (inactive)

---

Test system: NCI-H522
TEST DETAILS: NCI tumour cell line growth inhibition, 48 h
Activity calls are given as the source filed them. Cut-off read from the data, not from the text of the source: active = GI50 up to about 1.1 µM and inactive = higher.
QUANTITY: GI50

A selection of reference data follows.
Query: Can you share its GI50? I mean this molecule: O=C1CC(c2ccc(Cl)cc2)C2(C(=O)NC(=O)NC2=O)C(c2ccc(Cl)cc2)C1 (stereo not given)
Result: 17.5 µM (inactive)

Query: Input N#CC(c1ccnc(Cl)n1)c1nc2ccccc2s1 (stereo not given)
Result: 1.6 µM (inactive)

Query: Input COc1cc(C2c3cc4c(cc3[C@@H](Nc3ccc(Oc5ccccc5)cc3)C3COC(=O)[C@H]23)OCO4)cc(OC)c1O (stereo not given in full)
Result: 2.25 µM (inactive)

Query: Input COc1ccc2c(c1)/C(=C\c1c(C)nc3sc(C)cn13)C(=O)N2
Result: 0.175 µM (active)

// next entry
Query: Can you share its GI50? I mean this molecule: O=C(O)CCC(=O)c1ccc2ccc3cccc4ccc1c2c34
Result: 83.8 µM (inactive)

---

Tested on: MOLT-4
TEST DETAILS: NCI tumour cell line growth inhibition, 48 h
Active and inactive are the calls of the source. Rule as the data show it: active = GI50 up to about 1.1 µM and inactive = higher.
QUANTITY: GI50

Query: Checklist item: GI50 tested on MOLT-4, entry CN(C)C(=S)/N=c1\ss/c(=N\C(=S)N(C)C)n1-c1ccc(Cl)c(Cl)c1 , value?
Result: > 100 µM (inactive)

Query: Input CC(C)=CCN=C(N)N
Result: 51.2 µM (inactive)

Query: Input COC1/C(=C\C(=O)OC(C)(C)C)c2ccccc2N1C(C)=O (stereo unspecified)
Result: 81.7 µM (inactive)

Query: Input O=Nn1c2ccccc2c2cc([N+](=O)[O-])ccc21
Result: 14.1 µM (inactive)

Others:
Query: Checklist item: GI50 tested on MOLT-4, entry C/C(=C\CNc1ncnc2c1ncn2C1CCCCO1)COP(=O)(O)O (stereo unspecified) , value?
Result: > 100 µM (inactive)

Query: Input COc1ccc2c(c1)N1CCc3cc(OC)c(OC)cc3C1C2 (stereo unspecified)
Result: 26 µM (inactive)
